assay: Analytical size exclusion chromatography (percent monomer); assay type: physicochemical; conditions: NEM-conjugated cysteine variants; SEC, Abs280 monomer region 5.5-6 minutes vs oligomer region 4-5.3 minutes
Known Percent monomer of a selection of molecules

- molecule: "G64C: cysteine variant of P54AR4-83v2 (SEQ ID NOS: 209 and 247); NEM and VC-MMAF conjugates (conjugate, NEM or vcMMAF conjugate; EGFR binding FN3 domain, NEM and VC-MMAF conjugates) MLPAPKNLVVSEVTEDSARLSWDDPWAFYESFLIQYQESEKVGEAIVLTVPGSERSYDLTGLKPCTEYTVSIYGVHNVYKDTNMRGLPLSAIFTT"
  Percent monomer / %: 100
- molecule: "E11C: cysteine variant of P54AR4-83v2 (SEQ ID NOS: 191 and 229); NEM and VC-MMAF conjugates (conjugate, NEM or vcMMAF conjugate; EGFR binding FN3 domain, NEM and VC-MMAF conjugates) MLPAPKNLVVSCVTEDSARLSWDDPWAFYESFLIQYQESEKVGEAIVLTVPGSERSYDLTGLKPGTEYTVSIYGVHNVYKDTNMRGLPLSAIFTT"
  Percent monomer / %: 100
- molecule: "P87C (conjugate, left off: small tags and cut ends) LPAPKNLVVSEVTEDSARLSWDDPWAFYESFLIQYQESEKVGEAIVLTVPGSERSYDLTGLKPGTEYTVSIYGVHNVYKDTNMRGLCLSAIFTT"
  Percent monomer / %: 98
- molecule: "A3C (conjugate, left off: small tags and cut ends) LPCPKNLVVSEVTEDSARLSWDDPWAFYESFLIQYQESEKVGEAIVLTVPGSERSYDLTGLKPGTEYTVSIYGVHNVYKDTNMRGLPLSAIFTT"
  Percent monomer / %: 100
- molecule: "V41C: cysteine variant of P54AR4-83v2 (SEQ ID NOS: 200 and 238); NEM and VC-MMAF conjugates (conjugate, NEM or vcMMAF conjugate; EGFR binding FN3 domain, NEM and VC-MMAF conjugates) MLPAPKNLVVSEVTEDSARLSWDDPWAFYESFLIQYQESEKCGEAIVLTVPGSERSYDLTGLKPGTEYTVSIYGVHNVYKDTNMRGLPLSAIFTT"
  Percent monomer / %: 98
- molecule: "P24C (conjugate, left off: small tags and cut ends) LPAPKNLVVSEVTEDSARLSWDDCWAFYESFLIQYQESEKVGEAIVLTVPGSERSYDLTGLKPGTEYTVSIYGVHNVYKDTNMRGLPLSAIFTT"
  Percent monomer / %: 88
